Assay: chemical genetic growth profiling, strain panel (AID 1159580);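 further: tested at 20 µM; growth read once vehicle control cultures reached saturation at 30 °C; 1 = growth at the plate median or of vehicle wells; lower values mean less growth of the strain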
Conditions: S. cerevisiae deletion strains, growth OD, locus YMR205C, strain PFK2, stronger effect = lower value
Among all 5,500 compounds or so, about 2,000 (36%) were called active. About 18% were inconclusive and are not listed. This is one part of the list.
measureName: normalized growth
Please give the numeric answer without any surrounding text.

INSERT INTO results (compound, measurename, testresult) VALUES
  ('COc1ccc(CCC(=O)c2c(O)cc(O[C@@H]3O[C@H](CO)C(O)[C@H](O)C3O[C@@H]3O[C@@H](C)[C@H](O)[C@@H](O)[C@H]3O)cc2O)cc1O (some centres undefined)', 'normalized growth', 1.02);

// normalized growth lookup, key: CC(=O)OCC(=O)[C@@]1(O)CCC2C3CCC4=CC(=O)C=CC4(C)C3[C@@H](O)C[C@@]21C (some centres undefined)
0.99

Param item = CC(O)(P(=O)(O)O)P(=O)(O)O ; retrieve measured normalized growth.
0.967

Can you look up the measured normalized growth of COc1ccc(-c2oc3cc(OC)c(OC)c(OC)c3c(=O)c2OC)cc1OC for me?
0.997

Which measured normalized growth value corresponds to COc1cc(NS(C)(=O)=O)ccc1Cc1c2ccccc2nc2ccccc12 ?
0.947

---

Experiment: chemical genetic growth profiling, strain panel (AID 1159580);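 further: tested at 20 µM; growth read once vehicle control cultures reached saturation at 30 °C; 1 = growth at the plate median or of vehicle wells; lower values mean less growth of the strain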
Conditions: S. cerevisiae deletion strains, growth OD, locus YHR142W, strain chs7, stronger effect = lower value
About 2,000 (36%) of roughly 5,500 compounds were called active. About 18% were inconclusive and are not listed. Some of the results follow.
measureName: normalized growth

Answered examples (6):
INSERT INTO measurements (compound, measurename, testresult) VALUES
  ('c1ccc2c(CC3=NCCN3)cccc2c1', 'normalized growth', '0.978 (inactive)'),
  ('CC(=O)O[C@H]1C[C@@H](OC(C)=O)C(C)(C)C2C[C@@H](OC(C)=O)[C@]3(C)C(CC[C@@]4(C)[C@H](c5ccoc5)OC(=O)[C@H]5O[C@]543)[C@]21C (stereo partly drawn)', 'normalized growth', '1 (inactive)'),
  ('CN(C)CCC(c1ccccc1)c1ccccn1 (stereo not drawn)', 'normalized growth', '1.01 (inactive)'),
  ('NC(C(=O)O)C(O)C(=O)O (stereo not drawn)', 'normalized growth', '0.983 (inactive)'),
  ('CC(C)(S)[C@@H](N)C(=O)O', 'normalized growth', '1.01 (inactive)'),
  ('O=C(O)[C@@H](S)[C@@H](S)C(=O)O', 'normalized growth', '0.937 (inactive)');

Return reported normalized growth; argument: FC(F)(F)c1cccc(N2CCNCC2)c1
1.02 (inactive)

Could you share which normalized growth value was measured for CC1C/C=C/C=C/C=C/C=C/C(O[C@@H]2O[C@H](C)[C@@H](O)[C@H](N)[C@@H]2O)CC2OC(O)(CC(O)CC3OC3/C=C/C(=O)O1)CC(O)C2C(=O)O (stereo partly drawn) ?
1.02 (inactive)

Any idea what normalized growth was measured for CC(=O)O[C@@H]1CC2C(C)(C)[C@@H](O)CC[C@]2(C)C2CC[C@@]3(C)[C@H](c4ccoc4)OC(=O)[C@H]4O[C@]43[C@@]21C (stereo partly drawn) ?
0.992 (inactive)

Query (compound): Nc1nc(F)nc2c1ncn2[C@@H]1O[C@H](COP(=O)(O)O)[C@@H](O)[C@@H]1O ; field requested: normalized growth
0.991 (inactive)

// normalized growth lookup, key: COC(=O)[C@@H]1OC(=O)C2OC23[C@@]1(C)CCC1[C@@]2(C)CCC(=O)C(C)(C)C2C[C@@H](OC(C)=O)[C@]13C (stereo partly drawn)
1.03 (inactive)

Return reported normalized growth; argument: COP(=S)(OC)Oc1ccc([N+](=O)[O-])cc1
0.965 (inactive)

Item under review: Cc1cc(/C=C/c2ccc3cc(N(C)C)ccc3[n+]2C)c(C)n1-c1ccccc1 . Reported normalized growth?
1 (inactive)

Item under review: Cc1ccc(C(=O)c2ccc(CC(=O)O)n2C)cc1 . Reported normalized growth?
1.02 (inactive)

Need normalized growth of CC[C@@H]1OC(=O)C[C@@H](O)[C@H](C)[C@@H](O[C@@H]2O[C@H](C)[C@@H](O)[C@H](N(C)C)[C@H]2O)[C@@H](CCN2C[C@H](C)C[C@H](C)C2)C[C@@H](C)C(=O)/C=C/C(C)=C\[C@@H]1CO[C@@H]1O[C@H](C)[C@@H](O)[C@@H](OC)[C@H]1OC , thanks.
0.983 (inactive)

# get_value(readout='normalized growth', item= O=C(O)COc1ccc(Cl)cc1Cl )
1.01 (inactive)

Which normalized growth is listed for CC1[C@H](C)OC(=O)CC(O)CC(O)CC(O)CCC(O)C(O)C[C@]2(O)CC(O)C(C(=O)O)C(CC(OC3O[C@H](C)[C@@H](O)[C@H](N)[C@@H]3O)/C=C/C=C/C=C/C=C/CC/C=C/C=C/[C@H](C)[C@H]1O)O2 (stereo partly drawn) ?
0.658 (active)

Which value of normalized growth has been reported for COP(=S)(OC)Oc1ccc(Sc2ccc(OP(=S)(OC)OC)cc2)cc1 in the records?
1.01 (inactive)
